- Protocol: Toxic responses test, lethal dose in mice
- Reported Conditions: mouse, in vivo; mice, intravenous; read-out: Intravenous LD50

{"Molecule": "COc1ccc2[nH]c([S+]([O-])Cc3ncc(C)c(OC)c3C)nc2c1 (stereo not shown)", "LD50 [mg/kg]": 82.8}

---

- Protocol: Toxic responses test, lethal dose in mice
- Reported Conditions: mouse, in vivo; oral; species not restated, follows mice; read-out: oral LD50

{"Compound": "COc1ccc2[nH]c([S+]([O-])Cc3ncc(C)c(OC)c3C)nc2c1 (stereo not shown)", "LD50": "> 2000 mg/kg"}

---

- Protocol: Toxic responses test, intravenous lethal dose in rats
- Reported Conditions: rat, in vivo, read-out: intravenous LD50 (median lethal dose)

{"Compound": "COc1ccc2[nH]c([S+]([O-])Cc3ncc(C)c(OC)c3C)nc2c1 (stereo not shown)", "LD50, mg/kg": 302}
